Metric: logP

Here are 5 molecules together with their reported answers.
Exercise: I'd like to know its logP. The molecule in question is COC(=O)C1(S(=O)(=O)c2ccc(Cl)cc2)CCC1
Solution: 2.28

Exercise: Bench note: what logP did Cc1ccc(S(=O)(=O)C2(C(=O)OC(C)C)CCCCC2)cc1 show?
Solution: 3.21

Exercise: What logP value was documented for this molecule, CC(C)OC(=O)C1(S(=O)(=O)c2ccc(Cl)cc2)CCCC1 ?
Solution: 3.16

Exercise: Which value of logP has been reported for COC(=O)C1(S(=O)(=O)c2ccc(Br)cc2)CCC1 in the records?
Solution: 2.45

Exercise: What value of logP has been recorded for this entry: COC(=O)C1(S(=O)(=O)c2ccccc2)CCCC1
Solution: 1.98

I: COC(=O)C1(S(=O)(=O)c2ccc(C)cc2)CCCCC1
II: COC(=O)CS(=O)(=O)c1ccccc1
III: COC(=O)C1(S(=O)(=O)c2ccccc2)CC1
Exercise: Number of molecules to sort: 3. Sort criterion: logP, ascending. Rank them, then answer with their labels in that order.
Solution: II, III, I
(II: 0.93, III: 1.43, I: 2.54)

1: COC(=O)C1(S(=O)(=O)c2ccccc2)CCCCC1
2: CC(C)OC(=O)C1(S(=O)(=O)c2ccc(Cl)cc2)CCCCC1
Exercise: Between 1 and 2 , which one shows the smaller logP number? Return value: the label identifying the chosen record.
Solution: 1
(1: 2.3, 2: 3.49)

I: COC(=O)C1(S(=O)(=O)c2ccc(Br)cc2)CC1
II: COC(=O)CS(=O)(=O)c1ccc(Br)cc1
Exercise: Of the two listed items, I and II , which carries the larger logP figure? Indicate which entry you chose by stating its label.
Solution: I
